experiment: Solubility test of (meth)acrylate compound; format: physicochemical; details: 30 parts by weight acrylate + 70 parts ethyl acetate
Metric Name: Solubility (30 mass % concentration) Solvent EA

These recorded examples may help you get a feel for the data.
Molecule	Result
C=CC(=O)Oc1ccc2ccccc2c1-c1c(OC(=O)C=C)ccc2ccccc12 [Reference Example 2]	∘
C=CC(=O)OCCOc1ccc(C2(c3ccc(OCCOC(=O)C=C)c(C)c3)c3ccccc3-c3ccccc32)cc1C	∘
C=CC(=O)Oc1c(Cc2ccccc2)cc(C2(c3cc(Cc4ccccc4)c(OC(=O)C=C)c(-c4ccccc4)c3)c3ccccc3-c3ccccc32)cc1-c1ccccc1	∘
C=CC(=O)Oc1ccc(C2(c3ccc(OC(=O)C=C)c(-c4ccccc4)c3)c3ccccc3-c3ccccc32)cc1-c1ccccc1	x

Q: Please list Solubility (30 mass % concentration) Solvent EA recorded for the molecule "C=CC(=O)Oc1ccc(C2(c3ccc(OC(=O)C=C)c(C)c3)c3ccccc3-c3ccccc32)cc1C"
A: x

---

Experiment: Solubility test of (meth)acrylate compound
Type: physicochemical
Settings: 30 parts by weight acrylate + 70 parts 2-phenylphenoxyethyl acrylate
Procedure: (9-2) Solubility Test of (Meth)Acrylate Compound 30 parts by weight of the (meth)acrylate compound and 70 parts by weight of each of the diluents (solvent or monofunctional acrylate) shown in Table 3 were mixed, and solubility was evaluated on the basis of the following evaluation criteria. ◯: The sample is dissolved at room temperature. Δ: The sample is dissolved when heated, and crystals are not precipitated even when the sample is cooled. […]
Metric Name: Solubility (30 mass % concentration) Monofunctional acrylate OPPEA

Compound	Result
C=CC(=O)Oc1c(Cc2ccccc2)cc(C2(c3cc(Cc4ccccc4)c(OC(=O)C=C)c(-c4ccccc4)c3)c3ccccc3-c3ccccc32)cc1-c1ccccc1	∘
C=CC(=O)OCCOc1ccc(C2(c3ccc(OCCOC(=O)C=C)c(C)c3)c3ccccc3-c3ccccc32)cc1C	∘
C=CC(=O)Oc1ccc2ccccc2c1-c1c(OC(=O)C=C)ccc2ccccc12 [Reference Example 2]	x
C=CC(=O)Oc1ccc(C2(c3ccc(OC(=O)C=C)c(-c4ccccc4)c3)c3ccccc3-c3ccccc32)cc1-c1ccccc1	x

Q: Provide Solubility (30 mass % concentration) Monofunctional acrylate OPPEA value for the following compound: "C=CC(=O)Oc1ccc(C2(c3ccc(OC(=O)C=C)c(C)c3)c3ccccc3-c3ccccc32)cc1C"
A: x

---

assay: Solubility test of (meth)acrylate compound; assay type: physicochemical; parameters: key: ◯: The sample is dissolved at room temperature.; Δ: The sample is dissolved when heated, and crystals are not precipitated even when the sample is cooled.; x: The sample is dissolved when heated, but crystals are precipitated when the sample is cooled, or the sample is not dissolved even when heated; conditions: 30 parts by weight acrylate + 70 parts m-phenoxybenzyl acrylate
Metric Name: Solubility (30 mass % concentration) Monofunctional acrylate POB-A

Some entries whose results are on file:
Compound	Result
C=CC(=O)Oc1ccc(C2(c3ccc(OC(=O)C=C)c(-c4ccccc4)c3)c3ccccc3-c3ccccc32)cc1-c1ccccc1 [Comparative Example 5]	x
C=CC(=O)OCCOc1ccc(C2(c3ccc(OCCOC(=O)C=C)c(C)c3)c3ccccc3-c3ccccc32)cc1C [Comparative Example 6]	∘
C=CC(=O)Oc1ccc(C2(c3ccc(OC(=O)C=C)c(C)c3)c3ccccc3-c3ccccc32)cc1C [Comparative Example 4]	x
C=CC(=O)Oc1c(Cc2ccccc2)cc(C2(c3cc(Cc4ccccc4)c(OC(=O)C=C)c(-c4ccccc4)c3)c3ccccc3-c3ccccc32)cc1-c1ccccc1 [Example 5]	∘

Q: Quickly give me recorded Solubility (30 mass % concentration) Monofunctional acrylate POB-A for C=CC(=O)Oc1ccc2ccccc2c1-c1c(OC(=O)C=C)ccc2ccccc12 [Reference Example 2]
A: x
